target: ΔF508-CFTR (Homo sapiens, UniProt P13569, DEL508-508); assay: Membrane potential optical (FRET/VIPR) assay, identification of potentiator compounds; conditions: Table 3; assay not given
Sequence (P13569 with tags, fused parts or gaps DEL508-508): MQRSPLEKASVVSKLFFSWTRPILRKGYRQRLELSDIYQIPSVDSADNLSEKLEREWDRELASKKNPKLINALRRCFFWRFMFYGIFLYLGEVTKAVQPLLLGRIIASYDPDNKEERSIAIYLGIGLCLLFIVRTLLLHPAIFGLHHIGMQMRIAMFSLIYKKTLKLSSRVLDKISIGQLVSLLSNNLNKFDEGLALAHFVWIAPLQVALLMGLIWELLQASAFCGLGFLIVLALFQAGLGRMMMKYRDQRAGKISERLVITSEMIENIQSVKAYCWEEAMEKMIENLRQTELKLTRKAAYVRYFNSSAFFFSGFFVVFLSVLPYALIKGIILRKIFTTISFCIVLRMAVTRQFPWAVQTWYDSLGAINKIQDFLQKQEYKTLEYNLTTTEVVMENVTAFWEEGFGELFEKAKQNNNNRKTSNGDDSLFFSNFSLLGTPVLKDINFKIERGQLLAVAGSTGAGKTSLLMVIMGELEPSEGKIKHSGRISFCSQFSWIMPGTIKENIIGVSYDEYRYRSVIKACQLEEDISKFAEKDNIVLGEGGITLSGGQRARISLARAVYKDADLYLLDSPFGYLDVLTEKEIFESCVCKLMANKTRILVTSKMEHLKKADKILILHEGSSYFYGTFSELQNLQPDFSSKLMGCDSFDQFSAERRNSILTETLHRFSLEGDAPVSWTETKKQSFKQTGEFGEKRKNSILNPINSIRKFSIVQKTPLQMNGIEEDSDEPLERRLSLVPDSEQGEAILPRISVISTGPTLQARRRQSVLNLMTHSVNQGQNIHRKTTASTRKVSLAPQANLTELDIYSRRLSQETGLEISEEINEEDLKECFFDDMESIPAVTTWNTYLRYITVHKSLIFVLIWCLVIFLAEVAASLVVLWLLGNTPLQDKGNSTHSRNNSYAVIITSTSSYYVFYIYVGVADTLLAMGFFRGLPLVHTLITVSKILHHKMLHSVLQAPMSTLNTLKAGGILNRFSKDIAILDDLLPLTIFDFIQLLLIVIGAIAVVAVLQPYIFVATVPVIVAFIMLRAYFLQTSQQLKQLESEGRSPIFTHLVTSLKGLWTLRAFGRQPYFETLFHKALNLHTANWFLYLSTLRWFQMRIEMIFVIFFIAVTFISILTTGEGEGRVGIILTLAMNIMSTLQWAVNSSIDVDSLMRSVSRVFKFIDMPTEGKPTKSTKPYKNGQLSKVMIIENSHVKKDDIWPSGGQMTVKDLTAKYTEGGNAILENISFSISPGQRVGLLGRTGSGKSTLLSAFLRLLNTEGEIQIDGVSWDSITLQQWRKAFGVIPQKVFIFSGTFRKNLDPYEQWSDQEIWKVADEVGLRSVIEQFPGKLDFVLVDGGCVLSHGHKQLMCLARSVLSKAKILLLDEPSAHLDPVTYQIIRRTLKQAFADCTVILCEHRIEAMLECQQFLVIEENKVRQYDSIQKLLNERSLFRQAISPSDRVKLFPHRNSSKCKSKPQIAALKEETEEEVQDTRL
property: EC50

[
  {
    "compound-structure": "CC(C)(C)OC(=O)N1CCCc2ccc(NC(=O)c3c[nH]c4ccccc4c3=O)cc21",
    "recorded-result": "< 10 µM"
  },
  {
    "compound-structure": "CCOC(=O)Nc1cc(NC(=O)c2c[nH]c3ccccc3c2=O)ccc1C(C)C",
    "recorded-result": "< 10 µM"
  },
  {
    "compound-structure": "CCOc1ccccc1NC(=O)c1c[nH]c2ccccc2c1=O",
    "recorded-result": "< 10 µM"
  },
  {
    "compound-structure": "CC(C)c1ccc(NC(=O)c2c[nH]c3ccccc3c2=O)c(C(F)(F)F)c1",
    "recorded-result": "< 10 µM"
  },
  {
    "compound-structure": "O=C(Nc1ccccc1N1CCCCC1)c1c[nH]c2ccccc2c1=O",
    "recorded-result": "< 10 µM"
  },
  {
    "compound-structure": "N#Cc1ccc(NC(=O)c2c[nH]c3ccccc3c2=O)cc1",
    "recorded-result": "25 to 60 µM"
  },
  {
    "compound-structure": "O=C(Nc1ccc2ncccc2c1)c1c[nH]c2ccccc2c1=O",
    "recorded-result": "25 to 60 µM"
  },
  {
    "compound-structure": "Cc1ccccc1-c1ccccc1NC(=O)c1c[nH]c2ccccc2c1=O",
    "recorded-result": "< 10 µM"
  },
  {
    "compound-structure": "CC(C)(C)c1cc(C(C)(C)C)c(NC(=O)c2c[nH]c3ccccc3c2=O)c(O)c1O",
    "recorded-result": "< 10 µM"
  }
]

The values you see were collected from patent US8614327B2.
